# target: PPARα (Homo sapiens, UniProt Q07869)
# Construct: expressed in transfected cells; host or cells: CV-1 (African green monkey kidney)
# Sequence (Q07869 239-466 limits assumed): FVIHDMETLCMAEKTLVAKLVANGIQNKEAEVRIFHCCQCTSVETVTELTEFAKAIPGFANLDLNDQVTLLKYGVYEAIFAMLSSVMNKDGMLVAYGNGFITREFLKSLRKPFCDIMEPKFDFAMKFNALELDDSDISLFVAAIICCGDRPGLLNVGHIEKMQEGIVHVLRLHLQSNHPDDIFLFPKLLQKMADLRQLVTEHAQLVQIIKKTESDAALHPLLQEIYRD
# experiment: PPARα ligand activity, GAL4-PPARα reporter luciferase assay in CV-1 cells
# Type: cell-based
# statedConditions: 24 hr incubation, KetoA and HYA each at 30 μM, other fatty acids by a similar method
recordedEndpoint: PPARα agonist activity (relative luciferase activity)

CCCCCC[C@@H](O)C/C=C\CCCCCCCC(=O)O ... PPARα agonist activity
CCCCC/C=C\CC(O)CCCCCCCCC(=O)O (stereo not drawn) [HYA, 10-hydroxy-cis-12-octadecenoic acid] ... PPARα agonist activity
CC/C=C\C/C=C\CC(O)CCCCCCCCC(=O)O (stereo not drawn) ... PPARα agonist activity
CCCCC/C=C\CC(O)CC/C=C\CCCCC(=O)O (stereo not drawn) ... PPARα agonist activity
CCCCCCC(=O)CCCCCCCCCCC(=O)O ... PPARα agonist activity

For the 2 compounds below, give their PPARα agonist activity (relative luciferase activity) values.
1. CCCCCCCCC(=O)CCCCCCCCC(=O)O
2. CCCCCCCCC(O)CCCCCCCCC(=O)O (stereo not drawn) [HYB, 10-hydroxyoctadecanoic acid]

[out]
1. PPARα agonist activity
2. PPARα agonist activity
